Experiment: in vivo
Set-up: species or system mice
Settings: male, NOD.Cg-Rag1tm1Mom Il2rgtm1Wjl/SzJ (NRG), mouse, iv, total radioactivity, Biodistribution: Brain
Where a SMILES comes first, the peptide text is derived from it. Bridges are numbered along the chain shown (N, C = ends). [ ]: non-standard residue; d: D form. The star is where a group is joined. X3 = O=C(O)CN1CCN(CC(=O)O)CCN(CC(=O)N[C@@H](CS(=O)(=O)O)C(=O)N[C@@H](CCCCNC(=O)CCCc2ccc(Br)cc2)C(=O)*)CCN(CC(=O)O)CC1; X1 = O=C(O)CN1CCN(CC(=O)O)CCN(CC(=O)N[C@@H](CS(=O)(=O)O)C(=O)N[C@@H](CCCCNC(=O)CCCc2ccc(I)cc2)C(=O)*)CCN(CC(=O)O)CC1; 2Nal = N[C@@H](Cc1ccc2ccccc2c1)C(=O)O; Lys(iPr) = CC(C)NCCCC[C@H](N)C(=O)O
quantity name: tissue uptake at 72 h (%ID/g)

{"columns": ["compound", "unit abbrev", "recorded measurement"],
 "data": [
  ["CC(C)NCCCC[C@H](NC(=O)[C@H]1CCC(=O)N[C@@H](CCCCNC(=O)[C@H](CCCCNC(=O)CCCc2ccc(Br)cc2)NC(=O)[C@H](CS(=O)(=O)O)NC(=O)CN2CCN(CC(=O)O)CCN(CC(=O)O)CCN(CC(=O)O)CC2)C(=O)N[C@@H](Cc2ccc(O)cc2)C(=O)N[C@@H](CCCCNC(C)C)C(=O)N[C@H](CCCNC(=N)N)C(=O)N[C@@H](Cc2ccc3ccccc3c2)C(=O)N[C@H](C)C(=O)N1)C(N)=O [[^177Lu]Lu-BL34L20, metal not drawn] (K(X3)Y[Lys(iPr)][dR][2Nal][dA][dE][Lys(iPr)]-NH2; lactam N-7)", "%ID/g", 0.03],
  ["CC(C)NCCCC[C@H](NC(=O)[C@H]1CCC(=O)N[C@@H](CCCCNC(=O)[C@H](CCCCNC(=O)CCCc2ccc(I)cc2)NC(=O)[C@H](CS(=O)(=O)O)NC(=O)CN2CCN(CC(=O)O)CCN(CC(=O)O)CCN(CC(=O)O)CC2)C(=O)N[C@@H](Cc2ccc(O)cc2)C(=O)N[C@@H](CCCCNC(C)C)C(=O)N[C@H](CCCNC(=N)N)C(=O)N[C@@H](Cc2ccc3ccccc3c2)C(=O)N[C@H](C)C(=O)N1)C(N)=O [[^177Lu]Lu-BL34L11, metal not drawn] (K(X1)Y[Lys(iPr)][dR][2Nal][dA][dE][Lys(iPr)]-NH2; lactam N-7)", "%ID/g", 0.07]
]}
